Tested on: OVCAR-4 ovarian
Assay: NCI-60 one-dose screen, 48 h
Settings: 10 µM unless noted
This is part of a sample that, as a whole, favours compounds with a hit. Of some 83,000 tested, about 20% had one in any assay. Activity calls are given as the source filed them. How the source made its calls: active means growth percent below 10; inactive means the rest.
Outcomes: yes for active, no for inactive

- compound: "Clc1c(Cl)[n+](Cc2ccc3ccccc3c2)cn1Cc1ccc2ccccc2c1"
  labelValue: "yes"
- compound: "NC1(CO)COC(c2ccccc2)OC1 (stereo not given)"
  labelValue: "no"
- compound: "Cc1ccc2c(=O)cc(C(=O)Nc3sc4c(c3C(=O)NCc3cccnc3)CCCC4)oc2c1C"
  labelValue: "no"
- compound: "CN1CCN(C(=O)[C@@]2(C)CC[C@]3(C)CC[C@]4(C)C(=CC[C@@H]5[C@@]6(C)CCC(=O)NC(C)(C)[C@@H]6CC[C@]54C)[C@@H]3C2)CC1"
  labelValue: "no"
- compound: "Nc1[nH]n2cc(-c3ccc(F)cc3)nc2c1N=Nc1ccc(S(N)(=O)=O)cc1"
  labelValue: "no"
